System: Streptococcus pneumoniae
Experiment Notes: Antibacterial activity against Streptococcus pneumoniae UC9912 (S.p)
Assay type: functional
Some compounds, each annotated with its measured MIC.

CC(=O)NC[C@H]1CN(c2ccc3c(c2)N(C=O)CCCC3)C(=O)O1 | > 64 µg/mL
CC(=O)NC[C@H]1CN(c2ccc3c(c2)CCN(C=O)CC3)C(=O)O1 | < 0.05 µg/mL
CC(=O)NC[C@H]1CN(c2ccc3c(c2)CCCCN3C(=O)OCc2ccccc2)C(=O)O1 | > 64 µg/mL

Input line: Please respond with reported MIC (system Streptococcus pneumoniae) for `CC(=O)NC[C@H]1CN(c2ccc3c(c2)CCN(C(=O)CO)CC3)C(=O)O1` .
Output line: < 0.05 µg/mL

All figures here come from ChEMBL document CHEMBL1136456.
